Reference for the values: PubChem BioAssay (NCI)

System: M14 melanoma
experiment_description: NCI-60 one-dose screen, 48 h (100 = growth as untreated, 0 = no growth, -100 = all killed)
condition_context: 10 µM unless noted
Compounds without any hit were thinned out: in the full panel of roughly 83,000, 20% have a hit.
result_type: growth (%)
Please state the figure in %; there is no need to write the unit.

Problem: Check the records and state growth for CN1CCc2nc3sc(C(N)=O)c(N)c3c(-c3cccs3)c2C1
Solution: 15.5

Problem: Check the records and state growth for CCSC(SCC)c1ccc(Cl)cc1
Solution: 110

Problem: Check the records and state growth for NC(Cc1ccc(O)c([N+](=O)[O-])c1)C(=O)O (stereo unspecified)
Solution: 101

Problem: Check the records and state growth for Cc1c(-c2ccc(O)cc2)n(Cc2ccc(OCCN3CCCCCC3)cc2)c2ccc(O)cc12
Solution: 63.5

Problem: Check the records and state growth for Nc1c(C(=O)Nc2ccncc2)sc2nc3c(cc12)C(O)CCC3 (stereo unspecified)
Solution: 114

Problem: Check the records and state growth for CCOC(=O)c1ccc(NC(=O)c2nc(-c3cc(OC)c(OC)c(OC)c3)n(-c3ccc(Cl)cc3)n2)cc1
Solution: 97.6
